STUDY_TARGET: T1, human CD19 (human, UniProt P15391 20-556)
T1 construct: also called B-cell surface antigen B4; B-cell antigen CD19
T1 sequence: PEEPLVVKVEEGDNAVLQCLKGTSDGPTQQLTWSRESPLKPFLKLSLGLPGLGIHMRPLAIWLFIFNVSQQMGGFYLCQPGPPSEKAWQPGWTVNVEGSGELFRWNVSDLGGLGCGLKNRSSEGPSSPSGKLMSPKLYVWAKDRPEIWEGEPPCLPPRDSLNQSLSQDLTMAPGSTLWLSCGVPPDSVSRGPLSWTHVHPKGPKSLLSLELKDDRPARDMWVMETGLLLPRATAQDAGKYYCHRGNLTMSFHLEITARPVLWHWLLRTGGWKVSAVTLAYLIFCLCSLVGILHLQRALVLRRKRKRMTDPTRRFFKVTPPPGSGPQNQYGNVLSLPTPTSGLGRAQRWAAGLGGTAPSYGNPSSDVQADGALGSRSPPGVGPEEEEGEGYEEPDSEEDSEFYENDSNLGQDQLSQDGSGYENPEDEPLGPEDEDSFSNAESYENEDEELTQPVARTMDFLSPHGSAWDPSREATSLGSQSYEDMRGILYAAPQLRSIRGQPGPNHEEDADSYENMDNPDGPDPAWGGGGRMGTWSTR
PROTOCOL_DESCRIPTION: binding affinity relative to the parent H1L1 mAb (Example 5); assay and format not named on the sheet
ASSAY_ENDPOINT: Fold change binding (fold)
Could you give me the number in fold? Just the number is fine.

Q: Give the measured Fold change binding of H1.52 / L1 (antibody, V domains shown, vs H1L1 (Kabat): VH S100cT; also called 4G7 H1.52_L1) VH: EVQLVESGGGLVKPGGSLKLSCAASGYTFTSYVMHWVRQAPGKGLEWIGYINPYNDGTKYNEKFQGRVTISSDKSISTAYMELSSLRSEDTAMYYCARGTYYYGTRVFDYWGQGTLVTVSS VL: DIVMTQSPATLSLSPGERATLSCRSSKSLLNSNGNTYLYWFQQKPGQSPQLLIYRMSNLASGVPDRFSGSGSGTEFTLTISSLEPEDFAVYYCMQHLEYPFTFGAGTKLEIK .
Result: 3.22

Q: Please do the same for H1.203 / L1.160 (antibody, V domains shown, vs H1L1 (Kabat): VH D55S/K58E/S100cT; VL L27cQ/S27eV/G29A/A55N/F96I; also called 4G7 H1.203_L1.160) VH: EVQLVESGGGLVKPGGSLKLSCAASGYTFTSYVMHWVRQAPGKGLEWIGYINPYNSGTEYNEKFQGRVTISSDKSISTAYMELSSLRSEDTAMYYCARGTYYYGTRVFDYWGQGTLVTVSS VL: DIVMTQSPATLSLSPGERATLSCRSSKSLQNVNANTYLYWFQQKPGQSPQLLIYRMSNLNSGVPDRFSGSGSGTEFTLTISSLEPEDFAVYYCMQHLEYPITFGAGTKLEIK as well.
Result: 1.76

Q: Please do the same for H1.196 / L1 (antibody, V domains shown, vs H1L1 (Kabat): VH T57P/S100cT/R100dS; also called 4G7 H1.196_L1) VH: EVQLVESGGGLVKPGGSLKLSCAASGYTFTSYVMHWVRQAPGKGLEWIGYINPYNDGPKYNEKFQGRVTISSDKSISTAYMELSSLRSEDTAMYYCARGTYYYGTSVFDYWGQGTLVTVSS VL: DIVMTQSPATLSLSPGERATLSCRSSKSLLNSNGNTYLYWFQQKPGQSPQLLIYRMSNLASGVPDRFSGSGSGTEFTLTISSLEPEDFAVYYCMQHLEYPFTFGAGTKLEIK as well.
Result: 3.42
